# IC50 per record follows
System: MCF-7
Experiment: MTT cytotoxicity assay, MCF-7
Type: cell-based
Conditions: Homo sapiens, MCF7; MTT, breast cancer cells; read-out: IC50 MCF-7
property label: IC50 (µM)

                              record_smiles  test_target  limit_operator  result_number
0  Cc1nc(NNC(=S)Nc2ccccc2)c2cnn(-c3ccccc3)c2n1        MCF-7               =           8.99
1  Cc1nc(NN=Cc2ccc([N+](=O)[O-])cc2)c2cnn(-c3ccccc3)c2n1        MCF-7               >            100
2  Cc1nc(NN=CC=Cc2ccccc2)c2cnn(-c3ccccc3)c2n1        MCF-7               >            100
3  Cc1nc(NN=Cc2c(Cl)cccc2Cl)c2cnn(-c3ccccc3)c2n1        MCF-7               >            100
4  CC(=NNc1nc(C)nc2c1cnn2-c1ccccc1)c1ccccc1        MCF-7               =           3.81
5  Cc1nc(NN=Cc2ccc(O)cc2)c2cnn(-c3ccccc3)c2n1        MCF-7               =           10.5

---

# pIC50 per record follows
Molecular target: EGFR^T790M (Homo sapiens, UniProt P00533, T790M)
Sequence (P00533 25-1210 T790M): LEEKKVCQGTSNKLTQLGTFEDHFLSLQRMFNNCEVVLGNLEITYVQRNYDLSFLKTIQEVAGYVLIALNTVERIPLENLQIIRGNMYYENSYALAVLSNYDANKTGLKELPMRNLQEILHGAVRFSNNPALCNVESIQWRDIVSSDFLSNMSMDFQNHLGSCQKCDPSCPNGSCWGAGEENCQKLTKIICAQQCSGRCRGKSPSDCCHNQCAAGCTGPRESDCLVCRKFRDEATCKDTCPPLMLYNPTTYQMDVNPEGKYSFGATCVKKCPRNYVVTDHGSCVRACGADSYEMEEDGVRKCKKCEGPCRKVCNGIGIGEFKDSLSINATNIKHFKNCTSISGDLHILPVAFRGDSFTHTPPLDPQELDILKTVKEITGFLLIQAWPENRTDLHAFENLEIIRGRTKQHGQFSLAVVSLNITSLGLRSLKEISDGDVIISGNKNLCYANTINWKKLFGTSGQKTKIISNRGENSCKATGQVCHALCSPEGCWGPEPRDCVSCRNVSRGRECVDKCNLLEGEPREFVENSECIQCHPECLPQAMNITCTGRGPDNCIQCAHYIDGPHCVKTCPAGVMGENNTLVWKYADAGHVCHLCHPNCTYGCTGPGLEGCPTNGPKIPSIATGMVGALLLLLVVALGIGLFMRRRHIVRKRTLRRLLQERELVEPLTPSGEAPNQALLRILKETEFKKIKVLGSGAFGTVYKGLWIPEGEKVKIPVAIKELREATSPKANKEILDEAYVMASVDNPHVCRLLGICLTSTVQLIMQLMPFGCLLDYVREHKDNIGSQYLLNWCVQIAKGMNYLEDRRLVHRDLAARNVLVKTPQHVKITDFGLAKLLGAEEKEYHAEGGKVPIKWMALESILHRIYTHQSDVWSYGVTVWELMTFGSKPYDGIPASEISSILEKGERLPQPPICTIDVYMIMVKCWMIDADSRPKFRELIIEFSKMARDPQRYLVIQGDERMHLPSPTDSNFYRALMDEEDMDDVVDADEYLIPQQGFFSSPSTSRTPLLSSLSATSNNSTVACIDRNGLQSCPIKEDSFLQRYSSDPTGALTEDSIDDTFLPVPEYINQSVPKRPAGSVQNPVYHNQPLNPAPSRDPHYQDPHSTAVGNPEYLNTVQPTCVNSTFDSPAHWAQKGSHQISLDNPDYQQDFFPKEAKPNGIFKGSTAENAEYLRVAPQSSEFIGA
Experiment: In vitro EGFR T790M kinase inhibitory assay
pIC50: −log10 of the molar value.
property label: pIC50

>>> print(df.to_string())
                                   compound  property_label  result_number
0  Cc1nc(NN=Cc2ccc(O)cc2)c2cnn(-c3ccccc3)c2n1 [Compound 5b]           pIC50           5.71
1  CC(=NNc1nc(C)nc2c1cnn2-c1ccccc1)c1ccccc1 [Compound 5i]           pIC50           6.25

---

Test system: HePG-2
Test: MTT cytotoxicity assay, HePG-2
Type: cell-based
Conditions: Homo sapiens, HepG2; 72 h incubation; read-out: IC50 HePG-2 72 h

compound	IC50 (µM)
CC(=NNc1nc(C)nc2c1cnn2-c1ccccc1)c1ccccc1	2.42
Cc1nc(NN=Cc2ccc(O)cc2)c2cnn(-c3ccccc3)c2n1	5.16
COc1cccc2c1C(=O)c1c(O)c3c(c(O)c1C2=O)C[C@@](O)(C(=O)CO)C[C@@H]3O[C@H]1C[C@H](N)[C@H](O)[C@H](C)O1 [DOX, Doxorubicin, reference compound]	1.07
Cc1nc(NNC(=S)Nc2ccccc2)c2cnn(-c3ccccc3)c2n1	5.93

---

Test system: WI-38
Experiment: MTT assay on normal cell line WI-38
Format: cell-based
Conditions: MTT, normal human diploid fibroblasts
# IC50 per record follows
property label: IC50

>>> print(df.to_string())
                              record_smiles  result
0  Cc1nc(NNC(=S)Nc2ccccc2)c2cnn(-c3ccccc3)c2n1   66 µM
1  Cc1nc(NN=Cc2ccc(O)cc2)c2cnn(-c3ccccc3)c2n1   35 µM

---

property label: melting point

>>> df
                               record_smiles  property_label         result
 0  Cc1nc(NN=Cc2c(Cl)cccc2Cl)c2cnn(-c3ccccc3)c2n1   melting point  255 to 257 °C
 1  Cc1nc2c(cnn2-c2ccccc2)c2nnc(C(Cl)(Cl)Cl)n12   melting point  250 to 252 °C
 2  CC(=NNc1nc(C)nc2c1cnn2-c1ccccc1)c1ccc(Cl)cc1Br   melting point  257 to 259 °C
 3     CCCCNC(=S)NNc1nc(C)nc2c1cnn2-c1ccccc1   melting point  270 to 272 °C
 4  CC(=NNc1nc(C)nc2c1cnn2-c1ccccc1)c1ccccc1   melting point  245 to 247 °C
 5  Cc1nc(NN=Cc2ccc(O)cc2)c2cnn(-c3ccccc3)c2n1   melting point  162 to 164 °C
 6  Cc1nc(NN2C(=O)CCC2=O)c2cnn(-c3ccccc3)c2n1   melting point  280 to 282 °C
 7   Cc1nc(NN=Cc2ccccc2)c2cnn(-c3ccccc3)c2n1   melting point  160 to 162 °C
 8            Cc1nc2c(cnn2-c2ccccc2)c2nncn12   melting point  250 to 252 °C
 9  Cc1nc(NN=Cc2ccc(Cl)cc2)c2cnn(-c3ccccc3)c2n1   melting point  233 to 235 °C
10  Cc1nc(NNC(=S)Nc2ccccc2)c2cnn(-c3ccccc3)c2n1   melting point  281 to 282 °C
11  COc1ccc(C=NNc2nc(C)nc3c2cnn3-c2ccccc2)cc1   melting point  227 to 229 °C
12       CCNC(=S)NNc1nc(C)nc2c1cnn2-c1ccccc1   melting point  278 to 280 °C
13  Cc1nc(NN=Cc2ccc([N+](=O)[O-])cc2)c2cnn(-c3ccccc3)c2n1   melting point  250 to 252 °C
14  COc1ccc(C(C)=NNc2nc(C)nc3c2cnn3-c2ccccc2)cc1   melting point  235 to 237 °C
15  Cc1nc2c(cnn2-c2ccccc2)c2nnc(C(F)(F)F)n12   melting point  267 to 269 °C
16      C=CNC(=S)NNc1nc(C)nc2c1cnn2-c1ccccc1   melting point  268 to 270 °C
17   COc1ccccc1C=NNc1nc(C)nc2c1cnn2-c1ccccc1   melting point  220 to 222 °C
18  Cc1nc(NN=CC=Cc2ccccc2)c2cnn(-c3ccccc3)c2n1   melting point  241 to 243 °C
19    CC(=O)CC(C)=Nc1nc(C)nc2c1cnn2-c1ccccc1   melting point  240 to 242 °C
20  CC(=NNc1nc(C)nc2c1cnn2-c1ccccc1)c1ccc(N)cc1   melting point  221 to 223 °C

---

Biological target: EGFR^WT (Homo sapiens, UniProt P00533)
Sequence (P00533 25-1210): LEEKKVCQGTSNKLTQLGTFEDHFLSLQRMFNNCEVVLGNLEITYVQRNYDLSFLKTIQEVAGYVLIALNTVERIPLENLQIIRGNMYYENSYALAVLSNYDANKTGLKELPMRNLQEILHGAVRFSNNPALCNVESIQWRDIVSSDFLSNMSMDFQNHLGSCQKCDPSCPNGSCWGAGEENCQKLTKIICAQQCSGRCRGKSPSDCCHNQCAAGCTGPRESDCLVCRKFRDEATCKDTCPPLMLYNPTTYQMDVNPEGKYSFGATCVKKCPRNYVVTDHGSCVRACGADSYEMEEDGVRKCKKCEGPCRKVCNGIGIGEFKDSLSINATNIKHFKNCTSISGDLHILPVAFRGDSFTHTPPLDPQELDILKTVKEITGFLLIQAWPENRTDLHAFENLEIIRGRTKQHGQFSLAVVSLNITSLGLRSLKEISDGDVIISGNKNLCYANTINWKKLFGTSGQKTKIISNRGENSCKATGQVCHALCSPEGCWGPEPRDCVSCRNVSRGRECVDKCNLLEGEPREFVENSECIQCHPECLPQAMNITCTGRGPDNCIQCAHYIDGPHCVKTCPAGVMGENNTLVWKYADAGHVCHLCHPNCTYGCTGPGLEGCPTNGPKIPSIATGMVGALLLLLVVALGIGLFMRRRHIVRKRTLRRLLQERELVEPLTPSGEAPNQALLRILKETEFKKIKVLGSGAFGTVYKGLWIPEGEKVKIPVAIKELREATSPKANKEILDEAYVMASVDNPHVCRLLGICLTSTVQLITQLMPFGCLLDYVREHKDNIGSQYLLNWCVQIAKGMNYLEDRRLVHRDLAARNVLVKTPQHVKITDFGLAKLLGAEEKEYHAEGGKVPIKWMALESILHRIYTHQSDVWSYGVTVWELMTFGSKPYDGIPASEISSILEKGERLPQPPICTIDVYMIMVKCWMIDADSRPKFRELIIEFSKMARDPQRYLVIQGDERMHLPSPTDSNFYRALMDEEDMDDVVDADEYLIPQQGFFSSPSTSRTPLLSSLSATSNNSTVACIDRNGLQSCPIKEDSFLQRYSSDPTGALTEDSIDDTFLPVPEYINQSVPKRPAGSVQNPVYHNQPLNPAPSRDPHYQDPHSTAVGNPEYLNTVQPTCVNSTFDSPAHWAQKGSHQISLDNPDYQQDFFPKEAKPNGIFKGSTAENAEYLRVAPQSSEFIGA
Test: In vitro EGFR enzyme inhibitory assay
Type: biochemical
Settings: read-out: IC50 EGFR^WT
property label: IC50 (nM)

>>> print(df.to_string())
                                   compound  result_number
0  Cc1nc(NNC(=S)Nc2ccccc2)c2cnn(-c3ccccc3)c2n1 [Compound 9e]            770

---

Target: Topo-II (Homo sapiens)
Construct: purchased
Test: In vitro Topo II inhibitory assay
Assay type: biochemical
Settings: conc 100, unit not given
# TOPO IiB %inh at conc 100 per record follows

molecule	TOPO IiB %inh at conc 100, %
Cc1nc(NN=Cc2ccc(O)cc2)c2cnn(-c3ccccc3)c2n1	66
Cc1nc(NNC(=S)Nc2ccccc2)c2cnn(-c3ccccc3)c2n1	65
CC(=NNc1nc(C)nc2c1cnn2-c1ccccc1)c1ccccc1	74
COc1cc([C@@H]2c3cc4c(cc3[C@@H](O[C@@H]3O[C@@H]5CO[C@@H](C)O[C@H]5[C@H](O)[C@H]3O)[C@H]3COC(=O)[C@H]23)OCO4)cc(OC)c1O [Etoposide, reference compound]	69

---

# pIC50 per record follows
Molecular target: Topo-II (Homo sapiens, UniProt Q02880)
Construct: purchased
Sequence (Q02880 2-1626): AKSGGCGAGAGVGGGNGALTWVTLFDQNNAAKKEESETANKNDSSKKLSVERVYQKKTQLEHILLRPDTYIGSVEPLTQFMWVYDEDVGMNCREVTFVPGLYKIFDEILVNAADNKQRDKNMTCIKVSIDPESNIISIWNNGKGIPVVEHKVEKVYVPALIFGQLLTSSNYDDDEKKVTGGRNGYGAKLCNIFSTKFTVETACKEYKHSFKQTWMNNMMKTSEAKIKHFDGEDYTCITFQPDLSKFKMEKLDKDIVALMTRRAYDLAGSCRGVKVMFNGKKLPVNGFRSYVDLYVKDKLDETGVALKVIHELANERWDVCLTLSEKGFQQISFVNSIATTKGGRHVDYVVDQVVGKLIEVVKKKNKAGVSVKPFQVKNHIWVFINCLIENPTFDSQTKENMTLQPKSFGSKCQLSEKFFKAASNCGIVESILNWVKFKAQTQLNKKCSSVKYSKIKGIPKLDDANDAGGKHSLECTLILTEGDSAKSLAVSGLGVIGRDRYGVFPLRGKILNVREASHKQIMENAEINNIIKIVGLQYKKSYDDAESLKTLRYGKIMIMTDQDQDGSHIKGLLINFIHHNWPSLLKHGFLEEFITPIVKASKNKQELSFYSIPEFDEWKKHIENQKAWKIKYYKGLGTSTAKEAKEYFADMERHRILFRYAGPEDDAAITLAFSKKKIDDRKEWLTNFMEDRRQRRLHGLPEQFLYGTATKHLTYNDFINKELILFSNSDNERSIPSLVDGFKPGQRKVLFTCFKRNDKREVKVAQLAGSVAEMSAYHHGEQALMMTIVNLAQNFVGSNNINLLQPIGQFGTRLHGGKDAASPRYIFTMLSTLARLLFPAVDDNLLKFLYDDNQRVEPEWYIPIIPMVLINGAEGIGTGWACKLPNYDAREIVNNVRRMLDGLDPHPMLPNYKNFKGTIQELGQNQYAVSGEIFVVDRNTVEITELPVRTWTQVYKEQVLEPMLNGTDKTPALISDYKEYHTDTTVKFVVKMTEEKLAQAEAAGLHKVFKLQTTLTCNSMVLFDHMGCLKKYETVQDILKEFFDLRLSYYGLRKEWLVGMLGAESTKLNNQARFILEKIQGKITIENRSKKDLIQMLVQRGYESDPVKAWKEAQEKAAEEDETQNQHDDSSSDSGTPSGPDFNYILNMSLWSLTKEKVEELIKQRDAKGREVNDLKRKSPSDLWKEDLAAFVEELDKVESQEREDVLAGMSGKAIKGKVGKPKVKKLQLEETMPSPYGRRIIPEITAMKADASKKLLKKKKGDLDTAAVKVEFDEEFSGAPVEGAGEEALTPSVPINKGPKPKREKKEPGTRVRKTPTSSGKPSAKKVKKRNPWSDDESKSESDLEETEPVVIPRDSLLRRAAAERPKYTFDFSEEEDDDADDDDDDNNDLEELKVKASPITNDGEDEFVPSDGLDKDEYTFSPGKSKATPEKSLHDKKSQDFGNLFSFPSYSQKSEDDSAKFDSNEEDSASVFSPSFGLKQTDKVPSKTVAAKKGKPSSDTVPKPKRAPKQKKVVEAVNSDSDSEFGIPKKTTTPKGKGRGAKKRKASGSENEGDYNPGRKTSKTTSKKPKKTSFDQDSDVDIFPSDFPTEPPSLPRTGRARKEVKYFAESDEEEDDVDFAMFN
Test: In vitro Topo II inhibitory assay
Assay type: biochemical
Settings: read-out: IC50 Topo-II
pIC50: −log10 of the molar value.
property label: pIC50

>>> print(df.to_string())
                                   molecule                             test_target  result_number
0  CC(=NNc1nc(C)nc2c1cnn2-c1ccccc1)c1ccccc1 [Compound 5i]  Topo-II (Homo sapiens, UniProt Q02880)           4.61
1  Cc1nc(NNC(=S)Nc2ccccc2)c2cnn(-c3ccccc3)c2n1 [Compound 9e]  Topo-II (Homo sapiens, UniProt Q02880)           4.61
2  Cc1nc(NN=Cc2ccc(O)cc2)c2cnn(-c3ccccc3)c2n1 [Compound 5b]  Topo-II (Homo sapiens, UniProt Q02880)           3.97

---

# pIC50 per record follows
Tested on: HePG-2
Experiment: MTT cytotoxicity assay, HePG-2
Assay type: cell-based
Settings: Homo sapiens, HepG2; 48 h incubation; read-out: IC50 HePG-2 48 h
pIC50: −log10 of the molar value.

molecule	test target	pIC50
Cc1nc(NN=Cc2ccc(O)cc2)c2cnn(-c3ccccc3)c2n1	HePG-2	5.12
Cc1nc(NNC(=S)Nc2ccccc2)c2cnn(-c3ccccc3)c2n1	HePG-2	5.08
COc1cccc2c1C(=O)c1c(O)c3c(c(O)c1C2=O)C[C@@](O)(C(=O)CO)C[C@@H]3O[C@H]1C[C@H](N)[C@H](O)[C@H](C)O1 [DOX, Doxorubicin, reference compound]	HePG-2	5.49
CC(=NNc1nc(C)nc2c1cnn2-c1ccccc1)c1ccccc1	HePG-2	5.48

// provenance: paper PMC10573254
